These measurements were taken from ChEMBL document CHEMBL1135893.

Quick reference: MIC of the listed items.
# Test system: Staphylococcus aureus
# assay.procedure: Antibacterial activity evaluated as minimum inhibitory concentration against 3798 Staphylococcus aureus (GISA)
# Assay type: functional
# Set-up: unit not given beside the values
Give the figure only, with no unit attached.

given.smiles | experimental.system | readout.kind | value.observed
CCCCCCCCCCNCc1c(O)cc2c(c1O)-c1cc(ccc1O)[C@H]1NC(=O)[C@@H]3NC(=O)[C@H](CC(N)=O)NC(=O)[C@H](NC(=O)[C@@H](CC(C)C)NC)[C@H](O)c4ccc(c(Cl)c4)Oc4cc3cc(c4O[C@@H]3O[C@@H](CO)[C@H](O)[C@@H](O)[C@@H]3O[C@H]3C[C@@](C)(N)[C@@H](O)[C@@H](C)O3)Oc3cccc(c3)[C@@H](O[C@H]3C[C@@](C)(N)[C@@H](O)[C@@H](C)O3)[C@H](NC1=O)C(=O)N[C@@H]2C(=O)O | Staphylococcus aureus | MIC | 2

Q. Note MIC for the compound shown: "CCCCCCCCCCN[C@]1(C)C[C@H](O[C@@H]2[C@H](Oc3c4cc5cc3Oc3ccc(cc3Cl)[C@@H](O)[C@@H](NC(=O)[C@@H](CC(C)C)NC)C(=O)N[C@@H](CC(N)=O)C(=O)N[C@H]5C(=O)N[C@H]3C(=O)N[C@H](C(=O)N[C@H](C(=O)O)c5cc(O)cc(O)c5-c5cc3ccc5O)[C@H](O[C@H]3C[C@@](C)(N)[C@@H](O)[C@@H](C)O3)c3cccc(c3)O4)O[C@@H](CO)[C@H](O)[C@H]2O)O[C@H](C)[C@@H]1O"
A. 4
